System: A549 cells
Experiment: Cell cytotoxicity assay, A549 cells
Type: cell-based
Settings: Homo sapiens, 1 μM compound, 72 hours, percent cytotoxicity against DMSO control, read-out: Cell toxicity A549 cells 1 μM
Description: The following human derived non-small cell lung cancer cell lines were used to test the efficiency of the compounds to cause cell death and assess the anti-cancer properties of said compounds: 1. […] 500 cells/well/30 μL were seeded in a 384 well cell culture plate. […] Plates were incubated for 20 minute incubation at room temperature with shaking Plate were read in Envision. Ultrasensitive luminescence and data was analyzed and percent cytotoxicity of compounds was determined against DMSO control. […]
Returns 1.0 if the recorded cytotoxicity at 1 µM is greater than or equal to 20%, and 0.0 otherwise.

compound_structure=FC(F)(F)c1cc(N2CCN(c3ccnc4cc(Cl)ccc34)CC2)nc(N2CCOCC2)n1 category_label=0.0
compound_structure=COc1cc(Nc2nccc(N3CCN(c4ccnc5cc(Cl)ccc45)CC3)n2)cc(OC)c1 category_label=1.0
compound_structure=FC(F)(F)c1cc(N2CCN(c3ccnc4cc(Cl)ccc34)CC2)nc(N2CCCCCC2)n1 category_label=0.0
compound_structure=Cc1cc(N2CCN(c3ccnc4cc(Cl)ccc34)CC2)nc(N2CCOCC2)n1 category_label=0.0
compound_structure=COc1cc(Nc2nc(N3CCN(c4ccnc5cc(Cl)ccc45)CC3)cc(C(F)(F)F)n2)cc(OC)c1 category_label=1.0
compound_structure=Cc1cc(N2CCN(c3ccnc4cc(Cl)ccc34)CC2)nc(N2CCCC2)n1 category_label=0.0
compound_structure=FC(F)(F)c1cc(N2CCN(c3ccnc4cc(Cl)ccc34)CC2)nc(N2CCNCC2)n1 category_label=0.0
compound_structure=FC(F)(F)c1cc(N2CCN(c3ccnc4cc(Cl)ccc34)CC2)nc(N2CCCCC2)n1 category_label=1.0
compound_structure=COc1cccc(Nc2nc(C)cc(N3CCN(c4ccnc5cc(Cl)ccc45)CC3)n2)c1 category_label=1.0
compound_structure=FC(F)(F)c1cc(N2CCN(c3ccnc4cc(Cl)ccc34)CC2)nc(N2CCCC2)n1 category_label=1.0
compound_structure=COc1cc(Nc2nc(C)cc(N3CCN(c4ccnc5cc(F)ccc45)CC3)n2)cc(OC)c1 category_label=1.0
compound_structure=COc1cccc(Nc2nc(N3CCN(c4ccnc5cc(Cl)ccc45)CC3)cc(C(F)(F)F)n2)c1 category_label=0.0
compound_structure=COc1cc(Nc2nc(N3CCN(c4ccnc5cc(F)ccc45)CC3)cc(C(F)(F)F)n2)cc(OC)c1 category_label=1.0
compound_structure=COc1cc(Nc2nc(N3CCN(c4ccnc5cc(C(F)(F)F)ccc45)CC3)cc(C(F)(F)F)n2)cc(OC)c1 category_label=0.0

----------
test system: NCI-H-522; test: CellTiter Glo assay, NCI-H-522; assay type: cell-based; conditions: Homo sapiens, NCI-H522; 72 hours, 10 point DRC, 100 μM top; read-out: Cytotoxicity IC50 NCI-H-522
EXPERIMENTAL_READOUT: IC50 (nM)

compound="COc1cc(Nc2nc(N3CCN(c4ccnc5cc(F)ccc45)CC3)cc(C(F)(F)F)n2)cc(OC)c1 [Compound A49]" measurement_target=NCI-H-522 value_observed=1840
compound="COc1cc(Nc2nc(C)cc(N3CCN(c4ccnc5cc(F)ccc45)CC3)n2)cc(OC)c1 [Compound A48]" measurement_target=NCI-H-522 value_observed=3240
compound="COc1cc(Nc2nc(N3CCN(c4ccnc5cc(Cl)ccc45)CC3)cc(C(F)(F)F)n2)cc(OC)c1 [Compound A1]" measurement_target=NCI-H-522 value_observed=3040
compound="COc1cc(Nc2nc(N3CCN(c4ccnc5ccccc45)CC3)cc(C(F)(F)F)n2)cc(OC)c1 [Compound A43]" measurement_target=NCI-H-522 value_observed=1230
compound="COc1cc(Nc2nc(C)cc(N3CCN(c4ccnc5ccccc45)CC3)n2)cc(OC)c1 [Compound A42]" measurement_target=NCI-H-522 value_observed=4210
compound="COc1cncc(Nc2nc(N3CCN(c4ccnc5cc(Cl)ccc45)CC3)cc(C(F)(F)F)n2)c1 [Compound A7]" measurement_target=NCI-H-522 value_observed=2560
